- Test system: Wolbachia pipientis
- Test Summary: Anti-Wolbachia Cell-Based Screen
- Assay type: functional
- Set-up: scale not given: in the data most compounds retested in dose-response had high values
- Test Context: 5 µM
In all, about 48,000 compounds went through this assay and about 13,000 (27%) showed an effect of 50% or more. This is one part of the list.
Parameter: Percent Effect. Scope: all listed entries.
State just the number; it will be interpreted in %.

Compound	Obs Value
CN1CCC(N(Cc2ccco2)S(=O)(=O)c2cc(Br)ccc2Br)CC1	17.1

Q: Fill in reported Percent Effect for this entry: `COc1ccccc1Oc1ncccc1CNC(=O)[C@@H](N)[C@@H](C)O`
A: -22.34

Q: Fill in reported Percent Effect for this entry: `COc1ccccc1Oc1ncccc1CNC(=O)[C@H](C)O`
A: -22.76

Q: Fill in reported Percent Effect for this entry: `CCOC(=O)Cn1ccc2cc(NC(=O)N3CCSCC3)ccc21`
A: -0.3314

Q: Fill in reported Percent Effect for this entry: `O=C(NCCc1nc(C2CC2)no1)[C@H]1CNC[C@H](C(=O)N2CCCC2)C1`
A: 183.5

###

- System: Wolbachia pipientis
- Test Summary: Anti-Wolbachia Cell-Based Screen
- Type: functional
- Parameters: scale not given: in the data most compounds retested in dose-response had high values
- Test Context: 5 µM
The whole screen tested about 48,000 compounds, of which about 13,000 (27%) showed an effect of 50% or more. Some of the results follow.
Parameter: Percent Effect. Scope: all listed entries.
State just the number; it will be interpreted in %.

Molecule	Reading Unit	Percent Effect
COc1c(C)cnc(CN(C)C(=O)c2ccccc2O)c1C	%	-2.97
CCn1cc(CN2CCCN(C(=O)CCc3ccccc3)CC2)cn1	%	96.36
COc1c(C)cnc(CN2CCOC(Cn3nc(C)nc3C)C2)c1C (configuration not stated)	%	-9.057
Cc1n[nH]c(C)c1CNCC(O)c1cccc(Cl)c1.Cl (configuration not stated)	%	7.117
CCn1cc(CN2CCCN(C(=O)CCn3cc(C)cn3)CC2)cn1	%	86.19

Q: Fill in reported Percent Effect for this entry: COc1c(C)cnc(CN(C)C(=O)c2ccc(C3CCCO3)s2)c1C (configuration not stated)
A: -4.342

Q: Fill in reported Percent Effect for this entry: `COc1c(C)cnc(CNC(=O)CCOCC(C)C)c1C`
A: 11.08

Q: Fill in reported Percent Effect for this entry: `O=C1CCCCN1Cc1cccc(NC(=O)N2CCSCC2)c1`
A: 7.58

###

- Test system: Wolbachia pipientis
- Test Summary: Anti-Wolbachia Cell-Based Screen
- Type: functional
- Set-up: scale not given: in the data most compounds retested in dose-response had high values
- Test Context: 5 µM
About 13,000 (27%) of roughly 48,000 compounds showed an effect of 50% or more. The list shows a part of the results.
With a cut-off of 10%, any Percent Effect strictly below it is called 1 (yes); any Percent Effect meeting it or above is called 0 (no).

Compound	System Name	Label Class
CCc1c(C(=O)N2CCNC(=O)C2)cnn1C(C)(C)C	Wolbachia pipientis	0 (no)
c1cnnc(N2CCC(c3nnc(Cn4ccnc4)n3C3CC3)CC2)c1	Wolbachia pipientis	1 (yes)
c1cnnc(N2CCCC2CNCc2nc3ccccc3o2)c1 (configuration not stated)	Wolbachia pipientis	1 (yes)
CNC(=O)C(C)(C)NC(=O)c1cc(COc2cccc(C(C)=O)c2)[nH]n1	Wolbachia pipientis	1 (yes)
N#CCCCS(=O)(=O)NC1(c2ccc(F)cc2)CC1	Wolbachia pipientis	0 (no)
Cc1ccoc1-c1nnc(CNCC2CCCN2c2cccnn2)o1 (configuration not stated)	Wolbachia pipientis	0 (no)

Q: Hello, I'm reviewing records and need to know if Percent Effect of `CN(C1CCCCC1)S(=O)(=O)N1CCN(Cc2ccco2)CC1` is below 10%. Could you check?
A: 0 (no)

Q: Hello, I'm reviewing records and need to know if Percent Effect of c1cnnc(N2CCCC2CNCc2nc(-c3ccsc3)no2)c1 (configuration not stated) is below 10%. Could you check?
A: 1 (yes)

Q: Hello, I'm reviewing records and need to know if Percent Effect of Cn1c(CN2CCCCC2)nnc1C1CCCN(C(=O)CCC(N)=O)C1 (configuration not stated) is below 10%. Could you check?
A: 0 (no)

Q: Hello, I'm reviewing records and need to know if Percent Effect of CCc1nc(CNCC2CCCN2c2cccnn2)no1 (configuration not stated) is below 10%. Could you check?
A: 0 (no)

Q: Hello, I'm reviewing records and need to know if Percent Effect of CCc1noc(CNCC2CCCN2c2cccnn2)n1 (configuration not stated) is below 10%. Could you check?
A: 0 (no)

Q: Hello, I'm reviewing records and need to know if Percent Effect of `c1ccc(CCCN2CC[C@H](c3nnc(-c4ccccc4)o3)C2)cc1` is below 10%. Could you check?
A: 1 (yes)

Q: Hello, I'm reviewing records and need to know if Percent Effect of `CC(=O)Nc1nc(C2CCN(C(=O)C3CCC3)CC2)cs1` is below 10%. Could you check?
A: 0 (no)

Q: Hello, I'm reviewing records and need to know if Percent Effect of `CN(C)C1(CNC(=O)C/C=C/c2ccc(F)cc2)CCOCC1` is below 10%. Could you check?
A: 1 (yes)

Q: Hello, I'm reviewing records and need to know if Percent Effect of `CS(=O)(=O)N[C@@H]1CCN(Cc2cccnc2)[C@H]1Cc1cccnc1` is below 10%. Could you check?
A: 1 (yes)

Q: Hello, I'm reviewing records and need to know if Percent Effect of c1cnnc(N2CCCC2CNCc2nnc(C3CC3)o2)c1 (configuration not stated) is below 10%. Could you check?
A: 1 (yes)

Q: Hello, I'm reviewing records and need to know if Percent Effect of O=C(NCC1(O)CCOC1)c1ccccc1Cl (configuration not stated) is below 10%. Could you check?
A: 1 (yes)

The reported measurements were obtained from ChEMBL document CHEMBL3988442.
